Property: %Inh; scope: individual compounds
system: MAP3K3; conditions: concentration: 1 μM, replicates: in singlicate; n = 1;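 note: KINOMEscan kinase panel screen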

# compoundStructure, %Inh
measured = [
    ("Cc1ccc(C(=O)N2CC[C@@H](O)C2)cc1-n1c(C)cc(OCc2ccc(F)cc2F)c(Br)c1=O", "0%"),
    ("CC(=O)N1CCN(c2ccc(Nc3nccc(-c4sc(C(C)C)nc4-c4cccc(NS(=O)(=O)c5cccc(Cl)c5)c4)n3)cn2)CC1", "7%"),
    ("CCn1c(-c2nonc2N)nc2c(C#CC(C)(C)O)ncc(OCCCCN)c21.O=C(O)C(F)(F)F.O=C(O)C(F)(F)F", "81%"),
    ("CCn1c(-c2nonc2N)nc2c(C#CC(C)(C)O)nc(OC[C@H](N)c3ccccc3)cc21", "55%"),
    ("Cn1cc(-c2ccc3c(c2)CCN3C(=O)Cc2cccc(Cl)c2)c2c(N)ncnc21", "56%"),
]

Lab note: measured %Inh of `CC(C)(C)c1ccc2nccc(Nc3cccc(O)c3)c2c1` was 0%

Recorded result, `CCS(=O)(=O)c1ccc(OC)c(Nc2nccc(-c3c(-c4cccc(NC(=O)c5c(F)cccc5F)c4)nn4ncccc34)n2)c1` , %Inh: 0%

Input `Cl.c1ccc(-c2ccc3c(Nc4ccc5[nH]ccc5c4)ccnc3c2)nc1` . Output %Inh: 0%

----------
Catalogue of %Inh readings, one per entry.
test system: HASPIN; construct: gene GSG2; details: concentration: 1 μM, replicates: in singlicate; n = 1
Don't forget the unit after the value.

Known results for molecules:
# molecule, %Inh
data = [
    ("COc1cc(Nc2ncc3c(C)nc(-c4cc5ccccc5[nH]4)n3n2)cc(OC)c1OC", "0%"),
    ("Nc1ncnc2c1nc(-c1ccccc1)n2-c1ccccc1", "38%"),
]

Documented %Inh of `c1ccc(-c2cnc3nccnn23)cc1` : 0%

Entry under test: COc1ccc(Nc2nccc(N3CCC(NC(=O)Nc4cccc(OC)c4)C3)n2)cc1 (centres unmarked) . Its %Inh was 10%

The value of %Inh measured for the molecule `O=C(Nc1cccc(-c2nn3ncccc3c2-c2ccnc(Nc3ccccc3)n2)c1)c1c(F)cccc1F` turned out to be 0%

----------
system: PIP5K1C; settings: concentration: 1 μM, replicates: in singlicate; n = 1
Labelling field: enter rule met if recorded %Inh is less than 70%. Enter rule not met if it equals or exceeds that cut-off.

# compound, systemTested, class
records = [
    ("COc1ccc(Nc2nccc(N3CCC(NC(=O)Nc4cccc(OC)c4)C3)n2)cc1 (centres unmarked) [GSK1379742]", "PIP5K1C", "rule met"),
]

Attention now turns to another entry.
(Q) Lab note: %Inh threshold 70%. Does this compound come in strictly under it? CC(C)(C)c1ccc2nccc(Nc3cccc(O)c3)c2c1 [GW856795]
(A) rule met

----------
test system: DDR2; settings: concentration: 1 μM, replicates: in singlicate; n = 1
Hi! Just check whether %Inh is below 30%. Below gives t, equal or above gives f.

Observe how each entry below is paired with its result.
# molecule, systemTested, class
rows = [
    ("Cl.Cl.NCC(C(=O)Nc1cc(Br)c(-c2ccnc3[nH]ccc23)s1)c1ccccc1 (stereo not drawn)", "DDR2", "t"),
    ("CN(C)S(=O)(=O)c1cc(-c2ccc3nccc(-c4cccc(S(N)(=O)=O)c4)c3c2)cnc1N", "DDR2", "t"),
    ("CN(c1ccc(NC(=O)Nc2cc(C(F)(F)F)ccc2F)cc1)c1ccnc(Nc2ccc(S(N)(=O)=O)cc2)n1", "DDR2", "f"),
    ("Nc1ncnc2c1nc(-c1ccccc1)n2-c1ccccc1", "DDR2", "f"),
    ("CN1CCN(Cc2cccc(-c3ccc4c(Nc5ccc(Oc6ccccc6)cc5)ccnc4c3)c2)CC1", "DDR2", "f"),
    ("O=C(O)C(F)(F)F.O=C(O)C(F)(F)F.O=c1[nH]ccc2nc(N[C@@H]3CCCNC3)nc(Nc3ccc(S(=O)(=O)N4CCOCC4)cc3)c12", "DDR2", "f"),
]

(Q) Please state whether %Inh is below 30% for `Cc1ccc(F)c(C(=O)Nc2cccc(-c3nn4ccccc4c3-c3ccnc(Nc4cccc(F)c4)n3)c2)c1F`
(A) f

(Q) Lab log: compare recorded %Inh with 30%; is it strictly lower for `O=C(Nc1cccc(-c2nn3ncccc3c2-c2ccnc(Nc3ccccc3)n2)c1)c1c(F)cccc1F` ?
(A) f

----------
system: ACVR1B; settings: concentration: 1 μM, replicates: in singlicate; n = 1
This section presents molecules with their documented %Inh values.
# value in %; strip the unit string

A selection of reference data follows.
# molecule, %Inh (%)
measured = [
    ("CN1CCN(Cc2cccc(-c3ccc4c(Nc5ccc(Oc6ccccc6)cc5)ccnc4c3)c2)CC1", 0),
    ("FC(F)(F)c1ccc(/C=C/c2cncnc2Nc2ccc3[nH]c(Cc4ccccc4)nc3c2)cc1", 0),
    ("O=C(Nc1cccc(-c2nn3ncccc3c2-c2ccnc(Nc3ccccc3)n2)c1)c1c(F)cccc1F", 0),
    ("Nc1n[nH]c2cnc(-c3ccccc3)cc12", 0),
    ("COc1cccc(C(=O)Nc2cccc(Oc3ccc4nc(NC(=O)C5CC5)cn4n3)c2)c1", 0),
    ("Cc1ccc(C(=O)N2CC[C@@H](O)C2)cc1-n1c(C)cc(OCc2ccc(F)cc2F)c(Br)c1=O", 12),
    ("Cc1ccc(S(=O)(=O)Nc2ccc(Nc3nccc(Nc4cccc5[nH]ncc45)n3)cc2)cc1", 8),
    ("Cl.Cl.NCC(C(=O)Nc1cc(Br)c(-c2ccnc3[nH]ccc23)s1)c1ccccc1 (centres unmarked)", 67),
]

Recorded result, `O=C(Nc1n[nH]c2nc(-c3ccc(O)cc3)ccc12)C1CC1` , %Inh: 0

----------
tested on: BRSK1; conditions: concentration: 1 μM, replicates: in singlicate; n = 1
propertyMeasured: %Inh (%)
Note: unit % is implicit; provide only the numeric part.

# compound, systemTested, %Inh, %
data = [
    ("COc1cccc(C2=C(Nc3ccc(Cl)c(C(=O)O)c3)C(=O)NC2=O)c1 [SB-390769]", "BRSK1", 0),
    ("Cc1ccc(F)c(C(=O)Nc2cccc(-c3nn4ccccc4c3-c3ccnc(Nc4cccc(F)c4)n3)c2)c1F [GSK361061]", "BRSK1", 12),
    ("Cl.Cl.NCC(C(=O)Nc1cc(Br)c(-c2ccnc3[nH]ccc23)s1)c1ccccc1 (stereo not drawn) [GSK1269851]", "BRSK1", 6),
    ("CCn1c(-c2nonc2N)nc2c(C#CC(C)(C)O)nc(OC[C@H](N)c3ccccc3)cc21 [GSK943949]", "BRSK1", 0),
]

Please fill in: %Inh reported for `Cc1cccc(NC(=O)Nc2ccc(Oc3ncnc4ccn(C)c34)cc2)c1` = 0

Recorded result, c1ccc(-c2cnc3nccnn23)cc1 [AH20685] , %Inh: 0

The compound identified as Cc1ccc(C(=O)Nc2ccc(Nc3ccnc4cc(-c5nccs5)ccc34)cc2O)cc1.Cl [GW494702] registered its %Inh at 0

Value of %Inh reported for the compound Clc1ccc(-c2nn3ncccc3c2-c2ccnc(Nc3ccc4c(c3)OCCO4)n2)cc1 [GW829116] is 0

The value of %Inh measured for the compound O=C(Nc1n[nH]c2cc(-c3ccoc3)ccc12)C1CC1 [SB-738481] turned out to be 11

----------
Listed compounds paired with reported %Inh
test system: STK36; settings: concentration: 1 μM, replicates: in singlicate; n = 1
Respond with the bare value in %.

Record excerpt, results attached:
# compound, unitAnnotation, %Inh
measured = [
    ("Nc1ncnc2c1nc(-c1ccccc1)n2-c1ccccc1", "%", 7),
    ("c1ccc(-c2n[nH]cc2Nc2ccnc3ccccc23)nc1", "%", 0),
]

Entry `CN(c1ccc(NC(=O)Nc2cc(C(F)(F)F)ccc2F)cc1)c1ccnc(Nc2ccc(S(N)(=O)=O)cc2)n1` ; %Inh = 0

Record NCCCC(NC(=O)c1cc(Br)c(-c2ccnc3[nH]ccc23)s1)c1ccccc1.O=C(O)C(F)(F)F.O=C(O)C(F)(F)F (centres unmarked) , field %Inh: 0

For record `Cn1cc(-c2[nH]c3cc(NC(=O)[C@H](N)C4CCCCC4)cc4c3c2C=NNC4=O)cn1` the listed %Inh is 0

Value of %Inh reported for the compound `Fc1ccc(-c2ncn(C3CCNCC3)c2-c2ccnc(Oc3ccc(-c4ccccc4)cc3)n2)cc1` is 8

get_value(item= `CN1CCN(Cc2cccc(-c3ccc4c(Nc5ccc(Oc6ccccc6)cc5)ccnc4c3)c2)CC1` , readout=%Inh) returns 0

Field %Inh (entry `CC(C)c1nc(-c2cccc(NS(=O)(=O)c3c(F)cccc3F)c2F)c(-c2ccnc(Nc3ccc(N4CCOCC4)nc3)n2)s1` ) reads 100

----------
test system: FAK; construct: gene PTK2; conditions: concentration: 1 μM, replicates: in singlicate; n = 1
propertyMeasured: %Inh
Units required after the number.

Examples with answers:
# molecule, resultValue
records = [
    ("O=C(Nc1ccccc1F)NC1CCN(c2ccnc(Nc3ccc(F)cc3)n2)CC1 [GSK1379800]", "0%"),
    ("O=C(Nc1cccc(-c2nn3ccccc3c2-c2ccnc(Nc3cccc(F)c3)n2)c1)c1c(F)ccc(F)c1Cl [GSK357952]", "0%"),
    ("COc1cccc(NC(=O)NC2CCN(c3ccnc(Nc4cc(OC)c(OC)c(OC)c4)n3)C2)c1 (stereo not shown) [GSK1379763]", "0%"),
]

Looking up O=C(Nc1n[nH]c2cc(-c3ccoc3)ccc12)C1CC1 [SB-738481] , I found its %Inh recorded as 7%

Measured %Inh of COc1cc(Nc2ncc3c(C)nc(-c4cc5ccccc5[nH]4)n3n2)cc(OC)c1OC [GW869516] : 6%

Please fill in: %Inh reported for `CC(=O)Nc1nc2cnc(Nc3cc(NC(=O)c4cccc(C5(C#N)CC5)c4Cl)ccc3C)nc2s1` = 0%

Consider COc1cc(Nc2nccc(-c3c(-c4cccc(NC(=O)c5c(F)cccc5F)c4)nn4ccccc34)n2)cc(OC)c1OC [GSK323521] . Its measured %Inh is 0%

Field %Inh (entry Cc1ccc(C(=O)Nc2ccc(Nc3ccnc4cc(-c5nccs5)ccc34)cc2O)cc1.Cl [GW494702] ) reads 0%

get_value(item= Nc1ncnc2c1nc(-c1ccccc1)n2-c1ccccc1 [SKF-97293] , readout=%Inh) returns 14%
